# protocol_conditions: 313.15 K; 101 kPa; Liquid; Sing-around technique in a fixed-path interferometer
metric: speed of sound (m/s)

COCCOCCOCCO [2-[2-(2-methoxyethoxy)ethoxy]ethanol]    1393
CCCCn1cc[n+](C)c1.F[B-](F)(F)F [1-butyl-3-methylimidazolium tetrafluoroborate]    1531
COCCOCCO    1366
COCCO    1304

###

# protocol_conditions: 298.15 K; 101 kPa; Liquid; Vibrating tube method
metric: mass density (kg/m3)

CCCCn1cc[n+](C)c1.F[B-](F)(F)F [1-butyl-3-methylimidazolium tetrafluoroborate]    1199.39
COCCO    960.447
COCCOCCO    1015.79
COCCOCCOCCO [2-[2-(2-methoxyethoxy)ethoxy]ethanol]    1041.32

###

# protocol_conditions: 288.15 K; 101 kPa; Liquid; Sing-around technique in a fixed-path interferometer
metric: speed of sound (m/s)

COCCO [2-methoxyethan-1-ol]    1380
COCCOCCO [2-(2-methoxyethoxy)ethanol]    1451
CCCCn1cc[n+](C)c1.F[B-](F)(F)F [1-butyl-3-methylimidazolium tetrafluoroborate]    1589
COCCOCCOCCO [2-[2-(2-methoxyethoxy)ethoxy]ethanol]    1470

###

# protocol_conditions: 318.15 K; 101 kPa; Liquid; Vibrating tube method
metric: mass density (kg/m3)

COCCOCCOCCO [2-[2-(2-methoxyethoxy)ethoxy]ethanol]    1023.3
COCCOCCO [2-(2-methoxyethoxy)ethanol]    998.009
CCCCn1cc[n+](C)c1.F[B-](F)(F)F [1-butyl-3-methylimidazolium tetrafluoroborate]    1185.17
COCCO [2-methoxyethan-1-ol]    941.864

###

# protocol_conditions: 298.15 K; 101 kPa; Liquid; Sing-around technique in a fixed-path interferometer
metric: speed of sound (m/s)

CCCCn1cc[n+](C)c1.F[B-](F)(F)F [1-butyl-3-methylimidazolium tetrafluoroborate]    1565
COCCOCCO [2-(2-methoxyethoxy)ethanol]    1416
COCCOCCOCCO [2-[2-(2-methoxyethoxy)ethoxy]ethanol]    1436
COCCO [2-methoxyethan-1-ol]    1351

###

# protocol_conditions: 313.15 K; 101 kPa; Liquid; Vibrating tube method
metric: mass density (kg/m3)

COCCO    946.562
COCCOCCO    1002.47
COCCOCCOCCO [2-[2-(2-methoxyethoxy)ethoxy]ethanol]    1027.76
CCCCn1cc[n+](C)c1.F[B-](F)(F)F [1-butyl-3-methylimidazolium tetrafluoroborate]    1188.72

###

# protocol_conditions: 293.15 K; 101 kPa; Liquid; Vibrating tube method
metric: mass density (kg/m3)

COCCO    965.063
CCCCn1cc[n+](C)c1.F[B-](F)(F)F [1-butyl-3-methylimidazolium tetrafluoroborate]    1202.95
COCCOCCOCCO [2-[2-(2-methoxyethoxy)ethoxy]ethanol]    1045.75
COCCOCCO    1020.2

###

# protocol_conditions: 303.15 K; 101 kPa; Liquid; Sing-around technique in a fixed-path interferometer
metric: speed of sound (m/s)

COCCOCCO    1399
COCCOCCOCCO [2-[2-(2-methoxyethoxy)ethoxy]ethanol]    1421
CCCCn1cc[n+](C)c1.F[B-](F)(F)F [1-butyl-3-methylimidazolium tetrafluoroborate]    1554
COCCO    1337

###

# protocol_conditions: 288.15 K; 101 kPa; Liquid; Vibrating tube method
metric: mass density (kg/m3)

COCCOCCO    1024.6
COCCOCCOCCO [2-[2-(2-methoxyethoxy)ethoxy]ethanol]    1050.1
COCCO    969.794
CCCCn1cc[n+](C)c1.F[B-](F)(F)F [1-butyl-3-methylimidazolium tetrafluoroborate]    1206.51

###

# protocol_conditions: 308.15 K; 101 kPa; Liquid; Vibrating tube method
metric: mass density (kg/m3)

COCCO [2-methoxyethan-1-ol]    951.214
COCCOCCOCCO [2-[2-(2-methoxyethoxy)ethoxy]ethanol]    1032.27
CCCCn1cc[n+](C)c1.F[B-](F)(F)F [1-butyl-3-methylimidazolium tetrafluoroborate]    1192.27
COCCOCCO [2-(2-methoxyethoxy)ethanol]    1006.92

###

# protocol_conditions: 293.15 K; 101 kPa; Liquid; Sing-around technique in a fixed-path interferometer
metric: speed of sound (m/s)

COCCOCCO    1434
COCCOCCOCCO [2-[2-(2-methoxyethoxy)ethoxy]ethanol]    1452
CCCCn1cc[n+](C)c1.F[B-](F)(F)F [1-butyl-3-methylimidazolium tetrafluoroborate]    1577
COCCO    1367

###

# protocol_conditions: 318.15 K; 101 kPa; Liquid; Sing-around technique in a fixed-path interferometer
metric: speed of sound (m/s)

COCCOCCO [2-(2-methoxyethoxy)ethanol]    1349
CCCCn1cc[n+](C)c1.F[B-](F)(F)F [1-butyl-3-methylimidazolium tetrafluoroborate]    1520
COCCO [2-methoxyethan-1-ol]    1287
COCCOCCOCCO [2-[2-(2-methoxyethoxy)ethoxy]ethanol]    1376
